Tested on: M. fortuitum
protocol: microbe, parasite or virus in culture
Assay type: cell-based, Mycobacterium fortuitum
reported conditions: Mycolicibacterium fortuitum
metric name: MIC (µg/mL)
Dear colleague, please return just the value in µg/mL, with no unit written.

A selection of reference data follows.
{"compound": "[H]/N=C(/N)N[C@H]1[C@H](O)[C@@H](O)[C@H](O[C@@H]2O[C@@H](C)[C@](O)(C=O)[C@H]2O[C@@H]2O[C@@H](CO)[C@H](O)[C@@H](O)[C@@H]2NC)[C@@H](N/C(N)=N\\[H])[C@@H]1O", "reported": 6.3}
{"compound": "CC[C@@H](CO)NCCN[C@@H](CC)CO", "reported": 12.5}
{"compound": "NNC(=O)c1ccncc1 [INH, isoniazid, reference compound]", "reported": 25}

# ---- query compound ----
Problem: State its MIC for this compound: CO[C@H]1/C=C/O[C@@]2(C)Oc3c(C)c(O)c4c(O)c(c(/C=N/N5CCN(C)CC5)c(O)c4c3C2=O)NC(=O)/C(C)=C\C=C\[C@H](C)[C@H](O)[C@@H](C)[C@@H](O)[C@@H](C)[C@H](OC(C)=O)[C@@H]1C [RIF, rifampicin, reference compound]
Solution: 0.2
